# ASSAYED TARGET: T1, recombinant human TfR (2474-TR, R&D Systems), biotinylated (human, UniProt P02786 89-760, biotinylated with EZ-Link NHS-PEG4-Biotinylation Kit)
# T1 construct: Bought protein; also called immobilized recombinant human TfR; biotinylated human TfR
# T1 sequence (P02786 89-760 limits assumed): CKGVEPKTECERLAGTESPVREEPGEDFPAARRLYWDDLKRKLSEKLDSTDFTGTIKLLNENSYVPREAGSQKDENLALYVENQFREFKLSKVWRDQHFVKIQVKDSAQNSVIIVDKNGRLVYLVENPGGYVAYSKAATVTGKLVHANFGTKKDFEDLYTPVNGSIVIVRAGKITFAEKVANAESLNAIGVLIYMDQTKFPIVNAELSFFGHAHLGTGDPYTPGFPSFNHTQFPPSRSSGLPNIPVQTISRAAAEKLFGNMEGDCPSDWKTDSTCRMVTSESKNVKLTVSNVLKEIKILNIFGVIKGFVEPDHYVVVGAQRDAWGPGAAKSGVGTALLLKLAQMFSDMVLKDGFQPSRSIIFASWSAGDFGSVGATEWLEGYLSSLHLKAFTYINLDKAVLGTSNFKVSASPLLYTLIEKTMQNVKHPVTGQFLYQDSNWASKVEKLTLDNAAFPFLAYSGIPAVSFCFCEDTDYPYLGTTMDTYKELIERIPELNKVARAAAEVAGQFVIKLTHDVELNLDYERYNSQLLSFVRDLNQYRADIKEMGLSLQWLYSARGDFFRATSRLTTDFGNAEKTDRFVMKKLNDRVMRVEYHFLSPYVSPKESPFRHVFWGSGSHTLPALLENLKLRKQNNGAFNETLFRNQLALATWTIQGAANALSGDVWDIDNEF
# METHOD DESCRIPTION: SPR (Biacore), biotinylated human TfR captured on an SA chip, VHH injected, 1:1 dissociation fit, pH 7.4
// not met strictly below 0.009 s⁻¹ in koff; met otherwise

# BINDER, GROUP
rows = [
    ("BBB00764 (VHH, Histidine mutant) VHH: EVQLVESGGGLVQAGGSLRLSCAASGSIFSINAMGWYRQAPGKQRELVAVITSGGSTIYADSVKGRFTISRDNAENTVYLQMNSLRPEDTAVYYCNAHVGLKVPTIHELSLGFGSWGQGTLVTVSS", "met"),
    ("BBB00736 (VHH, also called variant of BBB00515) VHH: EVQLVESGGGLVQAGGSLRLSCAASGSIFSINAMGWYRQAPGKQRELVAVITSGGSTIYADSVKGRFTISRDNAENTVYLQMNSLRPEDTAVYYCNAHVGLKVPTIQELSLGFGSWGQGTLVTVSS", "not met"),
    ("BBB00739 (VHH, also called histidine mutant of BBB00533) VHH: EVQLVESGGGLVQAGGSLRLSCAASGSHFSINAMGWYRQAPGKQRELVAVITSGGSTIYADSVKGRFTISRDNAENTVYLQMNSLRPEDTAVYYCNAHVGLKVPTIQELSLGFGSWGQGTLVTVSS", "not met"),
    ("BBB00756 (VHH, also called histidine mutant of BBB00533) VHH: EVQLVESGGGLVQAGGSLRLSCAASGSIFSINAMGWYRQAPGKQRELVAVITSGGSTIYADSVKGRFTISRDNAENTVYLQMNSLRPEDTAVYYCNAHHGLKVPTIQELSLGFGSWGQGTLVTVSS", "not met"),
    ("BBB00745 (VHH, Histidine mutant) VHH: EVQLVESGGGLVQAGGSLRLSCAASGSIFSINAHGWYRQAPGKQRELVAVITSGGSTIYADSVKGRFTISRDNAENTVYLQMNSLRPEDTAVYYCNAHVGLKVPTIQELSLGFGSWGQGTLVTVSS", "not met"),
    ("BBB00772 (VHH, Histidine mutant) VHH: EVQLVESGGGLVQAGGSLRLSCAASGSIFSINAMGWYRQAPGKQRELVAVITSGGSTIYADSVKGRFTISRDNAENTVYLQMNSLRPEDTAVYYCNAHVGLKVPTIQELSLGFGHWGQGTLVTVSS", "not met"),
    ("BBB00771 (VHH, Histidine mutant) VHH: EVQLVESGGGLVQAGGSLRLSCAASGSIFSINAMGWYRQAPGKQRELVAVITSGGSTIYADSVKGRFTISRDNAENTVYLQMNSLRPEDTAVYYCNAHVGLKVPTIQELSLGFHSWGQGTLVTVSS", "met"),
    ("BBB00737 (VHH, Histidine mutant) VHH: EVQLVESGGGLVQAGGSLRLSCAASHSIFSINAMGWYRQAPGKQRELVAVITSGGSTIYADSVKGRFTISRDNAENTVYLQMNSLRPEDTAVYYCNAHVGLKVPTIQELSLGFGSWGQGTLVTVSS", "not met"),
    ("BBB00770 (VHH, also called histidine mutant of BBB00533) VHH: EVQLVESGGGLVQAGGSLRLSCAASGSIFSINAMGWYRQAPGKQRELVAVITSGGSTIYADSVKGRFTISRDNAENTVYLQMNSLRPEDTAVYYCNAHVGLKVPTIQELSLGHGSWGQGTLVTVSS", "not met"),
    ("BBB00740 (VHH, Histidine mutant) VHH: EVQLVESGGGLVQAGGSLRLSCAASGSIHSINAMGWYRQAPGKQRELVAVITSGGSTIYADSVKGRFTISRDNAENTVYLQMNSLRPEDTAVYYCNAHVGLKVPTIQELSLGFGSWGQGTLVTVSS", "met"),
    ("BBB00767 (VHH, Histidine mutant) VHH: EVQLVESGGGLVQAGGSLRLSCAASGSIFSINAMGWYRQAPGKQRELVAVITSGGSTIYADSVKGRFTISRDNAENTVYLQMNSLRPEDTAVYYCNAHVGLKVPTIQELHLGFGSWGQGTLVTVSS", "not met"),
    ("BBB00763 (VHH, also called histidine mutant of BBB00533) VHH: EVQLVESGGGLVQAGGSLRLSCAASGSIFSINAMGWYRQAPGKQRELVAVITSGGSTIYADSVKGRFTISRDNAENTVYLQMNSLRPEDTAVYYCNAHVGLKVPTHQELSLGFGSWGQGTLVTVSS", "met"),
    ("BBB00741 (VHH, also called histidine mutant of BBB00533) VHH: EVQLVESGGGLVQAGGSLRLSCAASGSIFHINAMGWYRQAPGKQRELVAVITSGGSTIYADSVKGRFTISRDNAENTVYLQMNSLRPEDTAVYYCNAHVGLKVPTIQELSLGFGSWGQGTLVTVSS", "not met"),
]
